Sourced from patent US11890352B2

Molecular target: T1, cell surface plectin on ovarian cancer cells (SKOV3, OVCAR8) (human, UniProt Q15149 1-4684)
T1 construct: whole, on cells; Endogenous plectin mislocalized to the cell surface; also called Plectin-1
T1 sequence (Q15149 whole entry): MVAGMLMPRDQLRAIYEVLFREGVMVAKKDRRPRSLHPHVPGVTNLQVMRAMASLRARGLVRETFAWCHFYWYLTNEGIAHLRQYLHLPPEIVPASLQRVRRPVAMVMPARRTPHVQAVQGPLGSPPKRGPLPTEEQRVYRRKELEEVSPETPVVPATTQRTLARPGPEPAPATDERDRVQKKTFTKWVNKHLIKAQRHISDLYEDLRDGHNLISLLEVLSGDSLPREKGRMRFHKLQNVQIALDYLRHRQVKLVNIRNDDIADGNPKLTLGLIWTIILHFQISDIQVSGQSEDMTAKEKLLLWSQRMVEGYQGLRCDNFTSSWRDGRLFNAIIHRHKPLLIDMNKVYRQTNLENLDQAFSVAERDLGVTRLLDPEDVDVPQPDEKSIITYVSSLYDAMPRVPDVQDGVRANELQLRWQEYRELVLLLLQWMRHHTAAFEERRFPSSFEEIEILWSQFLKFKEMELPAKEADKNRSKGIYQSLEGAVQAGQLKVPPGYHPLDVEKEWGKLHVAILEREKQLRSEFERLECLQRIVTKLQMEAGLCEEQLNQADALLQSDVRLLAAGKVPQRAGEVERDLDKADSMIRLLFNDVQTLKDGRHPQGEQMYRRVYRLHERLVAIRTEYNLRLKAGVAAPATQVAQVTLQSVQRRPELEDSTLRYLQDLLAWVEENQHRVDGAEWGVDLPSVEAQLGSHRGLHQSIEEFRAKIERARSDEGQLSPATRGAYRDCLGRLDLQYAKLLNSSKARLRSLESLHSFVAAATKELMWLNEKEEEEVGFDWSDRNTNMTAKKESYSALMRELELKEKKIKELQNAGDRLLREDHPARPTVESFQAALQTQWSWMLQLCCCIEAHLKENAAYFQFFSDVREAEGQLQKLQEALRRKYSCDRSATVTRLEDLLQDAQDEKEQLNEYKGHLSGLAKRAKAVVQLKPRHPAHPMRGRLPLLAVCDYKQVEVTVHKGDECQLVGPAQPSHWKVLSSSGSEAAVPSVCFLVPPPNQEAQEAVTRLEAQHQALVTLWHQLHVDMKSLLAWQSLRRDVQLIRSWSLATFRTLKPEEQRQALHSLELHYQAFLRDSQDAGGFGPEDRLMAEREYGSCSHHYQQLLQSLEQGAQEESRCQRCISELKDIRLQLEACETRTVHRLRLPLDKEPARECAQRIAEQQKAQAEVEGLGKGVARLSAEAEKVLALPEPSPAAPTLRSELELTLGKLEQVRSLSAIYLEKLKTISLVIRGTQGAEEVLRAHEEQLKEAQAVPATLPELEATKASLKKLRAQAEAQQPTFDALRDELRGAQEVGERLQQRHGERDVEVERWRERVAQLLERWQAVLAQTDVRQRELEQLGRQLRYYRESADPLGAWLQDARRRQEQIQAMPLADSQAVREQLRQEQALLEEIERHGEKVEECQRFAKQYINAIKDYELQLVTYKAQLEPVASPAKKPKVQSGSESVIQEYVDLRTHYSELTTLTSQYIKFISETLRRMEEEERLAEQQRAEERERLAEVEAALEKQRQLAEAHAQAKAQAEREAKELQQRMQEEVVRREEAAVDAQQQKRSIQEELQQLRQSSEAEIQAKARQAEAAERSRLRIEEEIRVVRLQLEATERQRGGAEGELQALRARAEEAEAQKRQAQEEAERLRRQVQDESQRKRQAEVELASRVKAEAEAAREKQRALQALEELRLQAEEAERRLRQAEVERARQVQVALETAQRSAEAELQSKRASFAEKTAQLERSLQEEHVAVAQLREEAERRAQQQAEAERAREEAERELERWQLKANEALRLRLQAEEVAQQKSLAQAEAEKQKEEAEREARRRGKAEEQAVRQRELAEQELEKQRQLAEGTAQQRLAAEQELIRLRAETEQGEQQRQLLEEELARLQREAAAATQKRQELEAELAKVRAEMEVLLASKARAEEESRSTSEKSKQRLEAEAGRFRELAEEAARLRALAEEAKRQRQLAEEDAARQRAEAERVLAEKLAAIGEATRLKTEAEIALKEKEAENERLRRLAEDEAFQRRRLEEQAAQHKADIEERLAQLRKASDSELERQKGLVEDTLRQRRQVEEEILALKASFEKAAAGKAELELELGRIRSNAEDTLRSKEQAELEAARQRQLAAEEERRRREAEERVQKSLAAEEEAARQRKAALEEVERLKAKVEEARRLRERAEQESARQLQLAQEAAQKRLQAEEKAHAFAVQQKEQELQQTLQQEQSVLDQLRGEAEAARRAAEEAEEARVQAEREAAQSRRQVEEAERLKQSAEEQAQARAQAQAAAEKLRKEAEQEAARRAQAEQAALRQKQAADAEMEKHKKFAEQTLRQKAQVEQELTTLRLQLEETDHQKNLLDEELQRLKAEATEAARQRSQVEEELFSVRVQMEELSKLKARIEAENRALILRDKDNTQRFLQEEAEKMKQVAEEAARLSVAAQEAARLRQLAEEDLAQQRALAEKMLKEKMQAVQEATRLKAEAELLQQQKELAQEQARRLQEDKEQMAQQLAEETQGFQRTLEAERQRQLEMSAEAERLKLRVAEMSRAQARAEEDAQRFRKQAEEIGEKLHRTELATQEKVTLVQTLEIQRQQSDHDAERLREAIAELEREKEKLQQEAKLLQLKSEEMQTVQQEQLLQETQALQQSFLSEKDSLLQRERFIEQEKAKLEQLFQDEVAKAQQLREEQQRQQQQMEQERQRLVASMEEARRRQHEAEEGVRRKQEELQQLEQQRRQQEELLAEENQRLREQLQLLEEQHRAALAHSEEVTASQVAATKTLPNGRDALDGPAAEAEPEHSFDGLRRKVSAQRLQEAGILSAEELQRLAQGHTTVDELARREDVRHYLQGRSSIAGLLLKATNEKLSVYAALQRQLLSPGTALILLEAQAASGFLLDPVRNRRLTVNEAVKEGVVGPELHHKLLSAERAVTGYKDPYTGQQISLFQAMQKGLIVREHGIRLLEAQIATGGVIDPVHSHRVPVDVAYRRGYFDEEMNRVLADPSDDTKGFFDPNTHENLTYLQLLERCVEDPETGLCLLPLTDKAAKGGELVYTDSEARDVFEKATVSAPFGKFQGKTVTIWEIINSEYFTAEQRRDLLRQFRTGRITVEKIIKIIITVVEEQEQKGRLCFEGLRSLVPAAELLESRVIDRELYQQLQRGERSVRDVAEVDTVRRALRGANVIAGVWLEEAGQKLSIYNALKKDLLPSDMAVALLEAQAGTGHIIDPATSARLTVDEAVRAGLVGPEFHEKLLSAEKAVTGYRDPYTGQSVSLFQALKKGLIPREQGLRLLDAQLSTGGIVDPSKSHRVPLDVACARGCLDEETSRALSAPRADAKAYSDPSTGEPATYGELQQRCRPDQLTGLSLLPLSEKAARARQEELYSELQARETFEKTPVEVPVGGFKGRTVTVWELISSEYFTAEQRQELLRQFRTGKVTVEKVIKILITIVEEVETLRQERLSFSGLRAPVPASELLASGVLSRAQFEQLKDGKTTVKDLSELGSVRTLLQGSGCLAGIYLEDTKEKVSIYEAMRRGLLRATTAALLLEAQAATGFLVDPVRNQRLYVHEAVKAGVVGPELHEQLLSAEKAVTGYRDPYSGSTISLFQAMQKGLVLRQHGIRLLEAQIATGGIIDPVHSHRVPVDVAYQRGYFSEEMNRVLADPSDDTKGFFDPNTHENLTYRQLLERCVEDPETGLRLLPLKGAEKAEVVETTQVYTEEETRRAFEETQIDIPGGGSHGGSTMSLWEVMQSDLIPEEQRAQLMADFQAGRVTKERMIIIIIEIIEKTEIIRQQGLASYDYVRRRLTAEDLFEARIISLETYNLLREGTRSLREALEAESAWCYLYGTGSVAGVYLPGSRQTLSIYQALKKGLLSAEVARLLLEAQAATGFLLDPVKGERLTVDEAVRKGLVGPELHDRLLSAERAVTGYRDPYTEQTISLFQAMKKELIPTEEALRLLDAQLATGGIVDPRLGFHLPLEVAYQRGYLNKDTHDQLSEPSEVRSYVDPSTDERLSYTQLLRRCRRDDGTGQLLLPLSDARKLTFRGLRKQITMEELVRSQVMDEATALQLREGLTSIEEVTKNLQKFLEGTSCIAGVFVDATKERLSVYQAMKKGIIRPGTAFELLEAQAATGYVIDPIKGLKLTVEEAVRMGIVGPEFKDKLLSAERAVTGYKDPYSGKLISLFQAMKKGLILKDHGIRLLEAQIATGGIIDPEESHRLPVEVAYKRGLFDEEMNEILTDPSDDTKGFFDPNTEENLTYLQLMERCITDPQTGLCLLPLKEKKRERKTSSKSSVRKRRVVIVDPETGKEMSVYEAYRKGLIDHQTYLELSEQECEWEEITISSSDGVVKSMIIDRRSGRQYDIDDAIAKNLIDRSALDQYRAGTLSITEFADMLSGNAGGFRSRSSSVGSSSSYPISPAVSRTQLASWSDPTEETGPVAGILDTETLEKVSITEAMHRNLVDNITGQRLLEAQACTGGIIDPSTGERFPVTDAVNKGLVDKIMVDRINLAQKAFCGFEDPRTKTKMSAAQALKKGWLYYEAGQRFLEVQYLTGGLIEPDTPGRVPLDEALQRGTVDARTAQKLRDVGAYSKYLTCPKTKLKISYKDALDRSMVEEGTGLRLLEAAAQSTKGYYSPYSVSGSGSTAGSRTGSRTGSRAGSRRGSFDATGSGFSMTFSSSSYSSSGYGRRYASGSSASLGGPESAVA
Assay: cell binding assay on OVCAR8 cells; DiR fluorescence; NCP and no-peptide liposome binding subtracted; OVCAR8 cells
Where no end group is shown, it is not given here. Side-chain parts run from the residue outwards. The star is where a group is joined. DSPE = CCCCCCCCCCCCCCCCCC(=O)OC[C@H](COP(=O)(O)OCCN*)OC(=O)CCCCCCCCCCCCCCCCC; FAM = 5(6)-carboxyfluorescein
assayMetric: pKd
The value called pKd is obtained by taking minus log10 of the concentration in mol/L.

Qu. I have this binder here, KTLLPTPGGSK(FAM)C([maleimide-PEG3400-DSPE])-NH2 (also: displayed on liposomes, Tested only as a multivalent display on liposomes (about 110-120 nm), not as free peptide; also called Plectin Targeted Peptide; PTP-PEG3400-DSPE) , and I need its recorded pKd.
Ans. 9.96
